The entries below come with measured IC50 values attached.
# assayed_system: DPP-IV enzyme (Bos taurus)
# Construct: Bovine plasma containing DPP-IV enzyme was diluted with assay buffer
# Sequence (P81425 38-765 limits assumed): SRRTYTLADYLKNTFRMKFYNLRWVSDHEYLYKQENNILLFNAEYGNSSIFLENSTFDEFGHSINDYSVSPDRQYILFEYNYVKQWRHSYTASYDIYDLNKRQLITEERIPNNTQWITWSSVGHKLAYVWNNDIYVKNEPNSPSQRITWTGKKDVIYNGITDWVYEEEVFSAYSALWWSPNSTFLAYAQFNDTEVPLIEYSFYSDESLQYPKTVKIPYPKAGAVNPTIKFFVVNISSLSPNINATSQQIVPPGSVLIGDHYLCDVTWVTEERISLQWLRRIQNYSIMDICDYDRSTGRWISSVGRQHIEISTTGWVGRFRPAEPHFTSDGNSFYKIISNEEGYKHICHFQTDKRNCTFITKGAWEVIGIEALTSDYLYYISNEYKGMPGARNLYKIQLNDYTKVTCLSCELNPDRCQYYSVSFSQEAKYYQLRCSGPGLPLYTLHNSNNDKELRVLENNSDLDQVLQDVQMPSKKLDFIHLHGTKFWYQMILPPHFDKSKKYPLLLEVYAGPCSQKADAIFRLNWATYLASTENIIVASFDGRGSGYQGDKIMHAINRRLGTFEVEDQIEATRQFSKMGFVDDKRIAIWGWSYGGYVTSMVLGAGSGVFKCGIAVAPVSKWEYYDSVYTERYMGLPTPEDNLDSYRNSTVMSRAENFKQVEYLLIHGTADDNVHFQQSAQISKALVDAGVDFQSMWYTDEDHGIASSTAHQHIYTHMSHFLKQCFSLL
# assay_summary: In Vitro DPP-IV Inhibitory Effect Measurement Test (1), bovine plasma
# conditions_used: substrate Glycyl-L-Proline 4-Methyl-Coumaryl-7-Amide, Table 1
Numbers only; they are read as nM.

[
  {
    "compound_structure": "Cn1ccc2nc(N3CCC[C@@H](N)C3)n(Cc3ccccc3Cl)c2c1=O",
    "unit_abbreviation": "nM",
    "IC50": 68
  },
  {
    "compound_structure": "Cn1ccc2nc(N3CCC[C@@H](N)C3)n(Cc3cc(F)ccc3Cl)c2c1=O",
    "unit_abbreviation": "nM",
    "IC50": 44
  }
]

Consider now this further molecule.
(Q) Item N[C@@H]1CCCN(c2nc3ccn(CC(=O)c4ccccc4)c(=O)c3n2Cc2ccccc2Cl)C1 has what recorded IC50?
(A) 1.4
